Experiment: Selectivity index, ratio of IC50 for rat L6 cells to IC50 for erythrocytic stage of Plasmodium falciparum NF54
Assay type: toxicity
Details: read-out: Ratio IC50
recorded metric: selectivity ratio
Reply: number alone, nothing else.

// known answers, use as guide
COc1cc2c(c(OC)c1-c1c(C)cc(OC)c3c(OC)cccc13)[C@@H](C)N[C@@H](C)C2
41
COc1ccc(-c2ccc(O)c3c2C[C@@H](C)N[C@H]3C)c2cc(C)cc(OC)c12
161
COc1cccc2c(-c3ccc(O)c4c3C[C@@H](C)N[C@H]4C)c(C)cc(OC)c12
61.7
COc1ccc(-c2ccc3c(c2O)[C@@H](C)N[C@H](C)C3)c2cc(C)cc(OC)c12
17.6
COc1ccc(-c2ccc3c(c2O)[C@@H](C)N(C)[C@H](C)C3)c2cc(C)cc(OC)c12
586

Next, consider the following compound.
For this compound ( COc1cc2c(c(O)c1-c1c(C)cc(OC)c3c(OC)cccc13)C(C)=N[C@H](C)C2 ), measured selectivity ratio is 5.4

====

Assay: Selectivity index, ratio of IC50 for rat L6 cells to IC50 for erythrocytic stage of chloroquine and pyrimethamine resistant Plasmodium falciparum K1
Assay type: toxicity
Conditions: read-out: Ratio IC50
recorded metric: selectivity ratio
Reply: number alone, nothing else.

For this compound ( COc1ccc(-c2ccc(O)c3c2C[C@@H](C)N[C@H]3C)c2cc(C)cc(OC)c12 ), measured selectivity ratio is 323

====

System: L6
Assay: Cytotoxicity against rat L6 cells after 72 hrs by Alamar Blue assay
Format: cell-based
Conditions: L6, 72 h
Measured log10(IC50) accompanies every entry in the list below.
The common logarithm of IC50 in µM is what is listed.

COc1cccc2c(-c3ccc(O)c4c3C[C@@H](C)N[C@H]4C)c(C)cc(OC)c12
1.64
COc1ccc(-c2ccc(O)c3c2C[C@@H](C)N[C@H]3C)c2cc(C)cc(OC)c12
1.16
COc1cc2c(c(O)c1-c1c(C)cc(OC)c3c(OC)cccc13)C(C)=N[C@H](C)C2
1.54
COc1ccc(-c2ccc3c(c2O)[C@@H](C)N(C)[C@H](C)C3)c2cc(C)cc(OC)c12
1.80
COc1cc2c(c(OC)c1-c1c(C)cc(OC)c3c(OC)cccc13)[C@@H](C)N[C@@H](C)C2
1.48

For this molecule ( COc1ccc(-c2ccc3c(c2O)[C@@H](C)N[C@H](C)C3)c2cc(C)cc(OC)c12 ), measured log10(IC50) is 0.60

====

Test system: CCRF-CEM
Assay: Growth inhibition of human CCRF-CEM cells by resazurin assay
Format: functional, cell-based
Measured pIC50 accompanies every entry in the list below.
Note on units: pIC50 is unitless, being -log10 of a concentration expressed in mol/L.

COc1cccc2c1C(=O)c1c(O)c3c(c(O)c1C2=O)C[C@@](O)(C(=O)CO)C[C@@H]3O[C@H]1C[C@H](N)[C@H](O)[C@H](C)O1
7.77

For this molecule ( COc1ccc(-c2ccc3c(c2O)[C@@H](C)N[C@H](C)C3)c2cc(C)cc(OC)c12 ), measured pIC50 is 5.73

For this molecule ( COc1cccc2c(-c3ccc4c(c3O)[C@@H](C)N[C@H](C)C4)c(C)cc(OC)c12 ), measured pIC50 is 6.61

====

Experiment: Induction of apoptosis in human INA-6 cells after 3 days by V-FITC/ propidium iodide staining-based flow cytometric analysis
Assay type: functional, cell-based
Conditions: Homo sapiens, INA-6, 72 h
recorded metric: EC50
Write the quantity with the unit trailing the number.

// known answers, use as guide
N[C@@H](Cc1ccc(N(CCCl)CCCl)cc1)C(=O)O
2000 nM
COc1ccc(-c2ccc3c(c2O)[C@@H](C)N(C)[C@H](C)C3)c2cc(C)cc(OC)c12
32000 nM
COc1cc(C)c(-c2ccc3c(c2O)[C@@H](C)N[C@H](C)C3)c2cccc(O)c12
1500 nM
COc1cccc2c(-c3ccc4c(c3O)[C@@H](C)N(C(C)=O)[C@H](C)C4)c(C)cc(OC)c12 [N-ACETYLDIONCOPHYLLINE A]
800 nM

For this compound ( COc1cc2c(c(OC)c1-c1c(C)cc(OC)c3c(OC)cccc13)[C@@H](C)N[C@@H](C)C2 ), measured EC50 is 4800 nM

For this compound ( COc1ccc(-c2ccc(O)c3c2C[C@@H](C)N[C@H]3C)c2cc(C)cc(OC)c12 ), measured EC50 is 21000 nM

For this compound ( COc1ccc(-c2ccc3c(c2O)[C@@H](C)N[C@H](C)C3)c2cc(C)cc(OC)c12 ), measured EC50 is 2600 nM

For this compound ( COc1cc(C)c(-c2ccc(O)c3c2C[C@@H](C)N[C@@H]3C)c2cccc(O)c12 [DIONCOPHYLLINE C] ), measured EC50 is 7500 nM

For this compound ( COc1cccc2c(-c3ccc4c(c3O)[C@@H](C)N[C@H](C)C4)c(C)cc(OC)c12 [DIONCOPHYLLINE A] ), measured EC50 is 220 nM
